Where these numbers come from: patent US5183899A

I'd appreciate it if you could supply inhibition at 10 µM values for the items below.
- TARGET_OR_TEST_SYSTEM: angiotensin II receptor (Bos taurus, UniProt P25104)
- Construct: An A II receptor membrane fraction was prepared from bovine adrenal cortex; from tissue; host or cells: bovine adrenal cortex, receptor membrane fraction
- Sequence (P25104 whole entry): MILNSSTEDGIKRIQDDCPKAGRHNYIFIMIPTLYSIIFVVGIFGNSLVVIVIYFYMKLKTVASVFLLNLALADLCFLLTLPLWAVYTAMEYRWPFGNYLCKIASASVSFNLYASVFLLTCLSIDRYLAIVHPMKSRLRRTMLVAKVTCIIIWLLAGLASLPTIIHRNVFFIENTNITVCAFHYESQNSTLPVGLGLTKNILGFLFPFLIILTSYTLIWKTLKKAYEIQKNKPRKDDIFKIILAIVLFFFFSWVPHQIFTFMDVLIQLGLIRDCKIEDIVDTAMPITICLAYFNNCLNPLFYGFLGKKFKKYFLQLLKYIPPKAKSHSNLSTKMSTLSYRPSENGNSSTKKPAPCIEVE
- ASSAY_EXPLANATION: Inhibition of binding of angiotensin II to angiotensin receptors (125I-angiotensin II binding, receptor membrane fraction from bovine adrenal cortex)
- EXPERIMENTAL_CONTEXT: 1 × 10^-5 (M), 125I-A II, room temperature, 1 hour
Just the number please, in %, no unit attached.

Input: Value lookup for inhibition at 10 µM; key = CCCCc1cc(C(=O)NCC)nn1Cc1ccc(-c2ccccc2-c2nn[nH]n2)cc1
Output: 97

Input: Value lookup for inhibition at 10 µM; key = CCCCc1cc(C(=O)Nc2ccccc2)nn1Cc1ccc(-c2ccccc2-c2nn[nH]n2)cc1
Output: 97

Input: Value lookup for inhibition at 10 µM; key = CCCCc1cc(C(=O)NC2Cc3ccccc3C2)nn1Cc1ccc(-c2ccccc2-c2nn[nH]n2)cc1
Output: 95

Input: Value lookup for inhibition at 10 µM; key = CCCCNC(=O)c1cc(CCCC)n(Cc2ccc(-c3ccccc3-c3nn[nH]n3)cc2)n1
Output: 95

Input: Value lookup for inhibition at 10 µM; key = CCCCc1cc(C(=O)N2CCCC2)nn1Cc1ccc(-c2ccccc2-c2nn[nH]n2)cc1
Output: 96

Input: Value lookup for inhibition at 10 µM; key = CCCCCc1cc(C(=O)OCC)nn1Cc1ccc(-c2ccccc2-c2nn[nH]n2)cc1
Output: 88

Input: Value lookup for inhibition at 10 µM; key = CCCCc1cc(C(N)=O)nn1Cc1ccc(-c2ccccc2-c2nn[nH]n2)cc1
Output: 93

Input: Value lookup for inhibition at 10 µM; key = CCCCc1cc(C(=O)NCc2ccccc2)nn1Cc1ccc(-c2ccccc2-c2nn[nH]n2)cc1
Output: 95

====

- TARGET_OR_TEST_SYSTEM: angiotensin II receptor (Bos taurus, UniProt P25104)
- Construct: An A II receptor membrane fraction was prepared from bovine adrenal cortex; from tissue; host or cells: bovine adrenal cortex, receptor membrane fraction
- ASSAY_EXPLANATION: Inhibition of binding of angiotensin II to angiotensin receptors (125I-angiotensin II binding, receptor membrane fraction from bovine adrenal cortex)
- EXPERIMENTAL_CONTEXT: 1 × 10^-6 (M), 125I-A II, room temperature, 1 hour
I'd appreciate it if you could supply inhibition at 1 µM values for the items below.
Just the number please, in %, no unit attached.

Input: Value lookup for inhibition at 1 µM; key = CCCCc1cc(C(=O)N2CCCC2)nn1Cc1ccc(-c2ccccc2-c2nn[nH]n2)cc1
Output: 77

Input: Value lookup for inhibition at 1 µM; key = CCCCc1cc(C(=O)N2CCN(C(c3ccccc3)c3ccccc3)CC2)nn1Cc1ccc(-c2ccccc2-c2nn[nH]n2)cc1
Output: 38

Input: Value lookup for inhibition at 1 µM; key = CCCCCc1cc(C(=O)OCC)nn1Cc1ccc(-c2ccccc2-c2nn[nH]n2)cc1
Output: 54

Input: Value lookup for inhibition at 1 µM; key = CCCCc1cc(C(N)=O)nn1Cc1ccc(-c2ccccc2-c2nn[nH]n2)cc1
Output: 75

Input: Value lookup for inhibition at 1 µM; key = CCCCc1cc(C(=O)NC(C)(C)C)nn1Cc1ccc(-c2ccccc2-c2nn[nH]n2)cc1
Output: 81

Input: Value lookup for inhibition at 1 µM; key = CCCCc1cc(C(=O)NC(C)C)nn1Cc1ccc(-c2ccccc2-c2nn[nH]n2)cc1
Output: 91

Input: Value lookup for inhibition at 1 µM; key = CCCCc1cc(C(=O)NC2CCCCC2)nn1Cc1ccc(-c2ccccc2-c2nn[nH]n2)cc1
Output: 93

Input: Value lookup for inhibition at 1 µM; key = CCCCc1cc(C(=O)N2CCOCC2)nn1Cc1ccc(-c2ccccc2-c2nn[nH]n2)cc1
Output: 92
